I'd be grateful if you could share measured T/C for these entries.
Tested on: BDF1 mice, B16 melanoma ip, median survival T/C
Assay: NCI In Vivo Anticancer Drug Screen. Data for tumor model B16 Melanoma (intraperitoneal) in B6D2F1 (BDF1) mice
Conditions: endpoint: median survival time; dose: 100.0 mg/kg/injection; schedule: Q01DX009 (ip); vehicle: Klucel (hydroxypropylcellulose) (HPC); higher = longer survival
Procedure: The antitumor activity of compounds was measured in mice bearing transplantable tumors. Survival or tumor size were measured and the results are expressed as the measurement made in the treated group (T) divided by the measurement made in the vehicle treated control group (C). The tumor model used in this assay is B16 Melanoma (intraperitoneal) in B6D2F1 (BDF1) mice
Toxic doses and inconclusive results are not listed.

O=C1CCC(N2C(=O)c3ccccc3C2=O)C(=O)N1 (configuration not stated): 94 % of control
CS(=O)(=O)Nc1ccc(C(=O)O)cc1: 100 % of control
COC(=O)c1ccccc1NC(=O)Nc1ccccc1: 110 % of control
CCCCCCCCC(O)CCCC (configuration not stated): 103 % of control

Dear reader, for each entry below, please note its T/C.
1. CCCCCCCCC(=O)OCCNC(=O)C(C)OC(=O)CCCCCCCC (configuration not stated)
2. COc1cccc(C(=O)C(CCC#N)c2ccccc2)c1 (configuration not stated)
3. CC(NC(C)c1ccccc1)c1ccccc1 (configuration not stated)
4. CN1c2c(nc(N)[nH]c2=O)NCC1CCNc1ccc(C(=O)NC(CCC(=O)O)C(=O)O)cc1 (configuration not stated)
5. C=C(C)[C@@H]1CC[C@]2(CO)CC[C@]3(C)[C@H](CC[C@@H]4[C@@]5(C)CC[C@H](O)C(C)(C)[C@@H]5CC[C@]43C)[C@@H]12
6. Cc1ccc(OS(=O)(=O)c2ccc([N+](=O)[O-])cc2)cc1

Response given:
["92 % of control", "103 % of control", "96 % of control", "106 % of control", "99 % of control", "97 % of control"]

Dear reader, for each entry below, please note its T/C.
1. c1ccc(-c2nnc(-c3ccccn3)nn2)nc1
2. Cc1cc(=O)[nH]c(N/N=C/c2ccccc2O)n1

Response given:
107 % of control
87 % of control

###

system: BDF1 mice, B16 melanoma ip, median survival T/C; test: NCI In Vivo Anticancer Drug Screen. Data for tumor model B16 Melanoma (intraperitoneal) in B6D2F1 (BDF1) mice; details: endpoint: median survival time; dose: 200.0 mg/kg/injection; schedule: Q01DX009 (ip); vehicle: saline with Tween-80; higher = longer survival
Inconclusive results and toxic doses are left out.
I'd be grateful if you could share measured T/C for these entries.

Here's what some known entries look like.
CCOC(=O)C(=CN1CCCC1)C(=O)OCC: 105 % of control
O=C(OCCCCCCl)c1ccccc1: 104 % of control
COC(=O)[C@]1(C)CCC[C@]2(C)[C@H]3CC4OO[C@@]3(CC[C@H]21)[C@H]1O[C@@]41C(C)C: 113 % of control
O=C(O)c1cc(-c2ccc(Cl)cc2)nc2c(-c3ccccc3)cccc12: 87 % of control
O=C(O)c1cccc2[nH]c(=O)oc(=O)c12: 91 % of control

Dear reader, for each entry below, please note its T/C.
1. COc1ccccc1NC(=O)Nc1cc(C)cc(C)n1
2. O=C(NC(Cc1ccccc1)C(=O)NC(Cc1c[nH]c2ccccc12)C(=O)O)OCc1ccccc1 (stereo not given)
3. CCC(=O)Nc1ccc(C)c(Cl)c1
4. CCOc1ccccc1NC(=O)Nc1ccccc1Cl

Response given:
1: 94 % of control; 2: 94 % of control; 3: 105 % of control; 4: 94 % of control

Dear reader, for each entry below, please note its T/C.
1. CCCC1OC(/C=C/c2ccccc2)OCC1CC (stereo not given)
2. c1ccc(-c2nn3c(-c4ccccc4)nnc3o2)cc1
3. OCC1OCCO1
4. Cc1cc(=O)[nH]c(Nc2ccccc2)n1
5. CCOC(=O)c1ccc(OC(=O)Nc2ccc(Cl)cc2)cc1
6. CCN(CC)c1nc(Cl)nc(NC(C)C)n1
7. NC(=S)N/N=C1/c2cc(Cl)ccc2-c2c(Cl)cc(Cl)cc21

Response given:
1: 110 % of control; 2: 92 % of control; 3: 93 % of control; 4: 92 % of control; 5: 92 % of control; 6: 89 % of control; 7: 95 % of control

###

test system: BDF1 mice, B16 melanoma ip, median survival T/C; assay: NCI In Vivo Anticancer Drug Screen. Data for tumor model B16 Melanoma (intraperitoneal) in B6D2F1 (BDF1) mice; details: endpoint: median survival time; dose: 1.5 mg/kg/injection; schedule: Q01DX009 (ip); vehicle: saline with Tween-80
Inconclusive results and toxic doses are left out. How the source made its calls: active means survival T/C of 150% or more; inactive means T/C below 125% in these data.
Parameter call: string, one of active, inactive

Here's what some known entries look like.
CC(=O)OC1COC(NC(=O)N(CCCl)N=O)C(OC(C)=O)C1OC(C)=O (stereo not given): active
Clc1ccc2nc(CBr)cnc2c1: inactive
Cc1nc2ccccc2nc1CI: inactive
CCC[CH2][Sn]([CH2]CCC)([S]C#N)[S]C#N: inactive

Kindly consider the entry below.
Challenge: Which outcome did this test record for the compound `CCC[CH2][Hg][Cl]` ?
Response given: inactive

###

test system: BDF1 mice, B16 melanoma ip, median survival T/C; experiment: NCI In Vivo Anticancer Drug Screen. Data for tumor model B16 Melanoma (intraperitoneal) in B6D2F1 (BDF1) mice; conditions: endpoint: median survival time; dose: 100.0 mg/kg/injection; schedule: Q01DX009 (ip); vehicle: saline with Tween-80; higher = longer survival
Toxic doses and inconclusive results are not listed. Square brackets hold non-standard residues; d marks the D form. Peptide text beside a SMILES is read from it. * marks the point of attachment. ξ: configuration not given here. Cbz = O=C(OCc1ccccc1)*; ξI = CCC(C)C(N)C(=O)O; ξNle = CCCCC(N)C(=O)O
I'd be grateful if you could share measured T/C for these entries.

Here's what some known entries look like.
C1CC[N-]CC1.C1CC[N-]CC1.[Cl][Rh]([Cl])[Cl]: 94 % of control
CC1=C(c2cc3ccccc3c3ccccc23)CCCC1: 90 % of control
CCCCCCCCCNC(=O)Nc1cccc(Cl)c1C: 91 % of control
CCC(C)C(C(=O)O)c1ccccc1 (stereo not drawn): 107 % of control
C=C/C(C)=C/[C@H](C)C(=O)C[C@H](O)CC1CC(=O)NC(=O)C1: 121 % of control
CCC(=O)Oc1[nH]c(C)c(C(C)=O)c1C: 102 % of control
CCCC1OC(/C=C/c2ccccc2)OCC1CC (stereo not drawn): 110 % of control
COc1cc(C(C)(C)C)cc(OC)c1C(O)(c1c(OC)cc(C(C)(C)C)cc1OC)c1c(OC)cc(C(C)(C)C)cc1OC: 109 % of control
CCOC(=O)CCOc1ccc(Cl)cc1: 101 % of control
CC(NC(=O)C1CCCN1C(=O)OCc1ccccc1)C(=O)O (stereo not drawn): 90 % of control

Dear reader, for each entry below, please note its T/C.
1. CCC(C)C(NC(=O)CNC(=O)CNC(=O)OCc1ccccc1)C(=O)O (stereo not drawn) (Cbz-Gly-Gly-[ξI]-OH)
2. O=C1c2ccc(Br)cc2-c2cc(Br)ccc21

Response given:
["92 % of control", "93 % of control"]

Dear reader, for each entry below, please note its T/C.
1. O=C(O)c1cccc2[nH]c(=O)oc(=O)c12
2. OC1CC2CC1C1C=CCC21 (stereo not drawn)
3. O=[N+]([O-])c1ccc(N=Nc2c(Cl)cc(O)cc2Cl)cc1
4. O=S1(=O)CC2(N3CCOCC3)CCCCC21 (stereo not drawn)
5. C=CCSC(C)CC (stereo not drawn)
6. CS(=O)(=O)c1cc(C(F)(F)F)cc([N+](=O)[O-])c1Cl
7. CC(=O)NCc1cc(CNC(C)=O)c(C)cc1C

Response given:
89 % of control
95 % of control
88 % of control
102 % of control
107 % of control
95 % of control
88 % of control

Dear reader, for each entry below, please note its T/C.
1. O=C1CC(C(=O)N2Cc3cc4ccccc4nc3C2)CO1 (stereo not drawn)
2. CCC(C)C(C(=O)OCCN(C)C)c1ccccc1 (stereo not drawn)
3. O=C(Nc1ccc(Cl)cc1)Nc1ccccc1F
4. CCOC(=O)CCCc1c[nH]c2ccccc12
5. CCCCNC(=O)Oc1ccc(OCc2ccccc2)cc1
6. C[CH2][Ge]([CH2]C)[CH2]C.C[CH2][Ge]([CH2]C)[CH2]C.C[CH2][Ge]([CH2]C)[O][Ge]([CH2]C)[CH2]C
7. O=C(OCCCCCCl)c1ccccc1
8. Cc1ccc(Cl)cc1NC(=O)CCl

Response given:
["116 % of control", "99 % of control", "89 % of control", "107 % of control", "107 % of control", "100 % of control", "117 % of control", "102 % of control"]

Dear reader, for each entry below, please note its T/C.
1. CCN(C(=O)Nc1cccc(Cl)c1)c1ccccc1
2. CCOC(CCC#N)c1ccc(Cl)cc1 (stereo not drawn)
3. Cc1nnc(NS(=O)(=O)c2ccc(N=Nc3nc4[nH]c(N)nc(=S)c4[nH]3)cc2)s1
4. CCCCN(CCCC)c1ccc(C(=O)O)cc1
5. Cn1ccc(=Nc2ccc(NC(=O)c3ccc(N=c4ccn(C)c5ccc([N+](=O)[O-])cc45)cc3[N+](=O)[O-])cc2)cc1
6. CCCCC(NC(=O)CNC(=O)CN)C(=O)O (stereo not drawn) (H-Gly-Gly-[ξNle]-OH)
7. CC(C)c1ccc(C(O)C2CC2)cc1 (stereo not drawn)
8. O=C(Nc1cccc(Cl)c1)Nc1cc(Cl)ccc1Cl

Response given:
102 % of control
98 % of control
92 % of control
94 % of control
105 % of control
103 % of control
102 % of control
100 % of control

Dear reader, for each entry below, please note its T/C.
1. NC(=O)NC1CCCCCC1
2. CC(C)CC(NC(=O)CNC(=O)/C=C/c1ccco1)C(N)=O (stereo not drawn)
3. Cc1ccc(Cl)cc1NC(=O)c1ccc([N+](=O)[O-])cc1
4. Cc1ccc2cc3c(ccc4ccccc43)c3c2c1CC3
5. CC1(C)CC(C)(c2ccc(O)cc2)c2ccccc2O1 (stereo not drawn)
6. CC(C)CCC1(CCBr)C(=O)NC(=Nc2ccccc2)NC1=O (stereo not drawn)

Response given:
1. 108 % of control
2. 92 % of control
3. 96 % of control
4. 120 % of control
5. 100 % of control
6. 96 % of control

Dear reader, for each entry below, please note its T/C.
1. CC(C)CC(NC(=O)C(C)NC(=O)CN)C(=O)O (stereo not drawn) (H-Gly-Ala-Leu-OH; configuration not given here)
2. Nc1ccc(OS(=O)(=O)c2ccccc2)cc1

Response given:
1: 96 % of control; 2: 100 % of control
